Tested on: L1210 leukemia ip in BDF1 mice, survival T/C
Experiment: NCI In Vivo Anticancer Drug Screen. Data for tumor model L1210 Leukemia (intraperitoneal) in B6D2F1 (BDF1) mice
Settings: endpoint: mean survival time; dose: 300.0 mg/kg/injection; schedule: Q01DX001 (ip); vehicle: carboxymethylcellulose (CMC); higher = longer survival
Toxic doses and inconclusive results are not listed.

COMPOUND	T/C
N#CC(C(=O)O)C1(C(C#N)C(=O)O)CCN(Cc2ccccc2)CC1 (centres undefined)	102 % of control
O=[N+]([O-])c1ccc(CS(=O)(=O)Cc2ccc([N+](=O)[O-])cc2)cc1	89 % of control
CN1CCC=C(COC(=O)C(C)(C)C)C1	95 % of control
NN(C(=O)c1ccccc1)c1ccccc1	95 % of control

###

Tested on: L1210 leukemia ip in BDF1 mice, survival T/C
Assay: NCI In Vivo Anticancer Drug Screen. Data for tumor model L1210 Leukemia (intraperitoneal) in B6D2F1 (BDF1) mice
Conditions: endpoint: mean survival time; dose: 400.0 mg/kg/injection; schedule: Q04DX002 (ip); vehicle: Klucel (hydroxypropylcellulose) (HPC); higher = longer survival
Procedure: The antitumor activity of compounds was measured in mice bearing transplantable tumors. Survival or tumor size were measured and the results are expressed as the measurement made in the treated group (T) divided by the measurement made in the vehicle treated control group (C). The tumor model used in this assay is L1210 Leukemia (intraperitoneal) in B6D2F1 (BDF1) mice
Toxic doses and inconclusive results are not listed.
As shown below, each of these molecules has a reported T/C value.
ASSAY_ENDPOINT: T/C

MOL_SMILES	MEAS_VALUE
O=[N+]([O-])c1cccc(C=Nc2ccc(Nc3ccccc3)cc2)c1	111 % of control
Nc1c(Cl)cc(I)cc1C(=O)O	102 % of control
CCCCCCCCCCCCCCOc1ccc(S(=O)(=O)/N=C(\N)NC(N)=NCCCCCCCCCC)cc1	89 % of control
COc1ccc(NC(=O)c2ccc(Cl)cc2Cl)c(OC)c1	102 % of control
Clc1cccc(NC(c2ccccc2)=[N+]2CCCCC2)c1	113 % of control
COc1ccc(/C=C(\C(=O)O)c2cccc3ccccc23)cc1	104 % of control
COc1ccc(C(=O)c2ccccc2)cc1	86 % of control
NC(=S)N/N=C\c1cccs1	102 % of control
O=C(O)COc1cccc(Cl)c1F	118 % of control
CNC(=O)Nc1ccc(Nc2ccccc2)cc1	91 % of control
CNC(=O)Oc1ccc(C2CCCCC2)cc1	100 % of control
COc1cccc(OC)c1C(=O)O	100 % of control
C=CCc1ccc(OC(=O)Nc2cccc(Cl)c2)c(OC)c1	95 % of control

###

Tested on: L1210 leukemia ip in BDF1 mice, survival T/C
Experiment: NCI In Vivo Anticancer Drug Screen. Data for tumor model L1210 Leukemia (intraperitoneal) in B6D2F1 (BDF1) mice
Settings: endpoint: mean survival time; dose: 150.0 mg/kg/injection; schedule: Q01DX001 (ip); vehicle: other; higher = longer survival
Toxic doses and inconclusive results are not listed.
T/C by entry:
ASSAY_ENDPOINT: T/C

MOLECULE	SYSTEM_NAME	MEAS_VALUE
c1ccc2c(c1)sc1cc3ccncc3cc12	L1210 leukemia ip in BDF1 mice, survival T/C	101 % of control
C=C(C1CC1)C1(CC)C(=O)NC(=S)NC1=O	L1210 leukemia ip in BDF1 mice, survival T/C	113 % of control
CN(C)CCN(C)N=Nc1c(-c2cccs2)n[nH]c1C(F)(F)F	L1210 leukemia ip in BDF1 mice, survival T/C	98 % of control
Cc1nn(C(N)=S)c(C)c1N=Nc1cccc(Cl)c1	L1210 leukemia ip in BDF1 mice, survival T/C	100 % of control
CCN1CCCC(SC(=O)C(O)(c2ccccc2)c2ccccc2)C1 (stereo not given)	L1210 leukemia ip in BDF1 mice, survival T/C	94 % of control
